Parameter: AMARE herbicidal damage score. Scope: all listed entries.
Test system: Amaranthus retroflexus
test-summary: Post-emergence herbicidal activity, glasshouse pot test
Assay type: in vivo
Set-up: key: 0 = no damage to plant, 5 = total damage to plant
conditions: Application post-emergence, rate 1000 g/ha, evaluated after 13 days
Please respond with just the number, no unit label.

These recorded examples may help you get a feel for the data.
molecule | experimental-target | AMARE herbicidal damage score
CC1=C(Cl)C(=O)N(c2cc(C(C)C#N)ncn2)C1O (stereo not shown) | Amaranthus retroflexus | 2
CC1=C(Cl)C(=O)N(c2cc(C(C)(C)F)ccn2)C1O (stereo not shown) | Amaranthus retroflexus | 5
COC1=C(OC)C(O)N(c2cc(C)c(OC)nn2)C1=O (stereo not shown) | Amaranthus retroflexus | 5

Now for the molecule whose AMARE herbicidal damage score we want.
GET /values?readout=AMARE herbicidal damage score&item= CCC1=C(Br)C(=O)N(c2cc(C(C)(C)C#N)ncn2)C1O (stereo not shown)
5

###

System: Abutilon theophrasti
test-summary: Pre-emergence herbicidal activity, glasshouse pot test
Format: in vivo
conditions: pre-emergence spray, rate 1000 g/ha, evaluated after 13 days, scale 0-5
Everything with ABUTH damage score, application pre-emergence lower than 4 is false; everything else, including exactly 4, is true.

Reference set, count: 3
compound | cat
COC1=C(C)C(O)N(c2cc(C(C)(C)C)c(N3CC(F)(F)C3)nn2)C1=O (stereo not drawn) [BI31] | true
COC1=C(C)C(O)N(c2cc(C)c(Cl)nn2)C1=O (stereo not drawn) [BI29] | false
CC1=C(Cl)C(=O)N(c2cc(C(C)(C)F)c(Cl)nn2)C1O (stereo not drawn) [BF11] | false

Reported ABUTH damage score, application pre-emergence at or above 4? CC1=C(Cl)C(=O)N(c2cc(C(C)(C)C)ccn2)C1O (stereo not drawn) [AF36]
true

Identify whether the reported ABUTH damage score, application pre-emergence of the following compound is 4 or greater: CCC1=C(Br)C(=O)N(c2cc(C(C)(C)C#N)ncn2)C1O (stereo not drawn) [CG2]
true

Form field: ABUTH damage score, application pre-emergence at least 4? Entry: CCCC1=C(Cl)C(=O)N(c2cc(C(C)(C)C#N)ncn2)C1O (stereo not drawn) [CF22]
true

State whether the measured ABUTH damage score, application pre-emergence reaches 4, counting equality as reaching it, for CCOc1nc(N2C(=O)C(Cl)=C(C)C2O)ncc1C#N (stereo not drawn) [DF4]
false

Please tell me: is the compound CCOC(=O)c1cnc(N2C(=O)C(Cl)=C(C)C2O)cc1Cl (stereo not drawn) [AF101] at or over 4 in terms of ABUTH damage score, application pre-emergence?
false

# bool: ABUTH damage score, application pre-emergence of COC1=C(C)C(O)N(c2ccc(NC(=O)C(C)(C)C)cn2)C1=O (stereo not drawn) [AI26] >= 4
true

Determine whether this compound has ABUTH damage score, application pre-emergence no lower than 4: CC1=C(Cl)C(=O)N(c2cc(/C=C/C(C)(C)C)ccn2)C1O (stereo not drawn) [AF26]
false

// inclusive: ABUTH damage score, application pre-emergence at least 4? input: CC1=C(Cl)C(=O)N(c2cc(C(C)C)ncn2)C1O (stereo not drawn) [CF19]
true

Please tell me: is the compound COC1=C(C)C(O)N(c2cc(C(F)(F)Cl)ccn2)C1=O (stereo not drawn) [AI16] at or over 4 in terms of ABUTH damage score, application pre-emergence?
false

# check: ABUTH damage score, application pre-emergence of CC1=C(Cl)C(=O)N(c2cc(C(C)(F)F)ccn2)C1O (stereo not drawn) [AF32] is greater than or equal to 4
true

###

Tested on: Alopecurus myosuroides
test-summary: Pre-emergence herbicidal activity, glasshouse pot test
Type: in vivo
conditions: pre-emergence spray, rate 1000 g/ha, evaluated after 13 days, scale 0-5
Quick reference: ALOMY damage score, application pre-emergence of the listed items.

compound | assay-value
CC1=C(Cl)C(=O)N(c2ccc(C)cn2)C1O (centres unmarked) [AF69] | 3
CCC1=C(Br)C(=O)N(c2cc(C(C)(C)C#N)ncn2)C1O (centres unmarked) [CG2] | 2
COC1=C(C)C(O)N(c2cc(F)ccn2)C1=O (centres unmarked) [AI23] | 3
CC1=C(Cl)C(=O)N(c2cc(C(F)(F)F)c(C(F)(F)F)cn2)C1O (centres unmarked) [AF43] | 0
CC1=C(Cl)C(=O)N(c2ccc(C#N)nn2)C1O (centres unmarked) [BF14] | 1
C/C=C/c1cc(N2C(=O)C(Cl)=C(C)C2O)ncn1 (centres unmarked) [CF6] | 2
COC1=C(OC)C(O)N(c2cc(C(F)(F)F)ccn2)C1=O (centres unmarked) [AK8] | 3
CC1=C(Cl)C(=O)N(c2ccc(C(F)(F)F)cn2)C1O (centres unmarked) [AF70] | 3
COC1=C(Br)C(=O)N(c2cc(C(F)(F)F)ccn2)C1O (centres unmarked) [AJ1] | 4
COC1=C(C)C(O)N(c2cc(C(C)C)c(C(=O)NC(C)(C)C#N)cn2)C1=O (centres unmarked) [AI31] | 3

// returns reported ALOMY damage score, application pre-emergence for input CCN(C)c1cc(N2C(=O)C(Cl)=C(C)C2O)ncn1 (centres unmarked) [CF16]
1

Fill in: ALOMY damage score, application pre-emergence of CC1=C(Cl)C(=O)N(c2cc(OC(F)(F)F)ccn2)C1O (centres unmarked) [AF74] is ___
3

Query (compound): CC1=C(Cl)C(=O)N(c2cc(C(C)(F)F)ccn2)C1O (centres unmarked) [AF32] ; field requested: ALOMY damage score, application pre-emergence
3

What value of ALOMY damage score, application pre-emergence has been recorded for this entry: CC1=C(Cl)C(=O)N(c2cc(C(C)(C)F)c(Cl)nn2)C1O (centres unmarked) [BF11]
0

###

Tested on: Setaria faberi
test-summary: Post-emergence herbicidal activity, glasshouse pot test
Assay type: in vivo
Set-up: key: 0 = no damage to plant, 5 = total damage to plant
conditions: Application post-emergence, rate 1000 g/ha, evaluated after 13 days
Protocol: Seeds of a variety of test species were sown in standard soil in pots. […] After 13 days, the test was evaluated (5=total damage to plant; 0=no damage to plant). […]
metric-name: SETFA herbicidal damage score

Sample answers from the record:
compound | experimental-target | SETFA herbicidal damage score
CC1=C(Cl)C(=O)N(c2cc(Cl)ccn2)C1O (stereo not shown) [AF66] | Setaria faberi | 5
CCc1cc(N2C(=O)C(OC)=C(C)C2O)ncc1Br (stereo not shown) [AI22] | Setaria faberi | 5
COC(=O)c1cnc(N2C(=O)C(OC)=C(C)C2O)cc1Cl (stereo not shown) [AI21] | Setaria faberi | 4
COC1=C(C)C(O)N(c2cc(Cl)c(C(=O)NC(C)(C)C)cn2)C1=O (stereo not shown) [AI18] | Setaria faberi | 5
COC1=C(C)C(O)N(c2cc(C(C)(C)F)c(Cl)nn2)C1=O (stereo not shown) [BI14] | Setaria faberi | 5
COC1=C(C)C(O)N(c2cc(C)c(C#N)nn2)C1=O (stereo not shown) [BI5] | Setaria faberi | 0
CC1=C(Cl)C(=O)N(c2ccc(C#N)cn2)C1O (stereo not shown) [AF60] | Setaria faberi | 1
COC1=C(C)C(O)N(c2cc(F)ccn2)C1=O (stereo not shown) [AI23] | Setaria faberi | 5

Which measured SETFA herbicidal damage score belongs to C/C=C/c1cc(N2C(=O)C(Cl)=C(C)C2O)ncn1 (stereo not shown) [CF6] , tested on Setaria faberi?
4

###

Tested on: Setaria faberi
test-summary: Post-emergence herbicidal activity, glasshouse pot test
Format: in vivo
Parameters: key: 0 = no damage to plant, 5 = total damage to plant
conditions: Application post-emergence, rate 1000 g/ha, evaluated after 13 days
metric-name: SETFA herbicidal damage score
When you answer, write just the number.

molecule | SETFA herbicidal damage score
CC1=C(Cl)C(=O)N(c2cc(C(F)(F)F)c(C(=O)NC(C)(C)C)cn2)C1O (stereo not shown) | 5

Enter reported SETFA herbicidal damage score observed with Setaria faberi for CC1=C(Cl)C(=O)N(c2cc(C(C)C)c(C(=O)OC(C)C)cn2)C1O (stereo not shown)
4

Write down the reported SETFA herbicidal damage score of CCCC1=C(Cl)C(=O)N(c2cc(C(F)(F)F)ccn2)C1O (stereo not shown) , test system: Setaria faberi.
4

// map C=C(OCC)c1nnc(N2C(=O)C(OC)=C(C)C2O)cc1C(C)(C)F (stereo not shown) to recorded SETFA herbicidal damage score (system: Setaria faberi)
5

Provide value of SETFA herbicidal damage score for this record tested with Setaria faberi: CC1=C(Cl)C(=O)N(c2cc(Cl)ncn2)C1O (stereo not shown)
1

Which SETFA herbicidal damage score is reported with Setaria faberi for this entry: COc1ccc(-c2ccc(N3C(=O)C(Cl)=C(C)C3O)nc2)cc1 (stereo not shown) ?
2

Give the reported SETFA herbicidal damage score for CC1=C(Cl)C(=O)N(c2cc(C#N)ncn2)C1O (stereo not shown) (system: Setaria faberi).
3

Short answer please: SETFA herbicidal damage score, Setaria faberi, entry COC1=C(C)C(O)N(c2cc(C(C)F)ccn2)C1=O (stereo not shown)
5

What measured SETFA herbicidal damage score is associated with CCN(CC)C(=O)c1cnc(N2C(=O)C(OC)=C(C)C2O)cc1C(F)(F)F (stereo not shown) on Setaria faberi?
5

State its SETFA herbicidal damage score on Setaria faberi: COC1=C(C)C(O)N(c2cc(C(C)(F)F)c(C#N)nn2)C1=O (stereo not shown)
4

Which SETFA herbicidal damage score is reported with Setaria faberi for this entry: COC1=C(C)C(O)N(c2cc(C(F)(F)F)c(-c3cnc(OC)nc3)cn2)C1=O (stereo not shown) ?
5

Requested read-out SETFA herbicidal damage score, target or system Setaria faberi, entry COC1=C(C)C(O)N(c2cc(C(F)(F)F)c(C(=O)CC#N)cn2)C1=O (stereo not shown)
4

Requested read-out SETFA herbicidal damage score, target or system Setaria faberi, entry COC1=C(OC)C(O)N(c2cc(OC)ccn2)C1=O (stereo not shown)
0

I'm curious: which SETFA herbicidal damage score was measured for COC1=C(C)C(O)N(c2ccc(C(=O)NC(C)(C)C)cn2)C1=O (stereo not shown) tested on Setaria faberi?
5
